Some compounds, each annotated with its measured Maximum % activity.
# TARGET_DESC: F508delCFTR (Homo sapiens, UniProt P13569, DEL508-508)
# Construct: expressed in transfected cells; host or cells: CFBE41o- (CFBE41o-F508delCFTR-HRP), doxycycline-inducible
# Sequence (P13569 with tags, fused parts or gaps DEL508-508): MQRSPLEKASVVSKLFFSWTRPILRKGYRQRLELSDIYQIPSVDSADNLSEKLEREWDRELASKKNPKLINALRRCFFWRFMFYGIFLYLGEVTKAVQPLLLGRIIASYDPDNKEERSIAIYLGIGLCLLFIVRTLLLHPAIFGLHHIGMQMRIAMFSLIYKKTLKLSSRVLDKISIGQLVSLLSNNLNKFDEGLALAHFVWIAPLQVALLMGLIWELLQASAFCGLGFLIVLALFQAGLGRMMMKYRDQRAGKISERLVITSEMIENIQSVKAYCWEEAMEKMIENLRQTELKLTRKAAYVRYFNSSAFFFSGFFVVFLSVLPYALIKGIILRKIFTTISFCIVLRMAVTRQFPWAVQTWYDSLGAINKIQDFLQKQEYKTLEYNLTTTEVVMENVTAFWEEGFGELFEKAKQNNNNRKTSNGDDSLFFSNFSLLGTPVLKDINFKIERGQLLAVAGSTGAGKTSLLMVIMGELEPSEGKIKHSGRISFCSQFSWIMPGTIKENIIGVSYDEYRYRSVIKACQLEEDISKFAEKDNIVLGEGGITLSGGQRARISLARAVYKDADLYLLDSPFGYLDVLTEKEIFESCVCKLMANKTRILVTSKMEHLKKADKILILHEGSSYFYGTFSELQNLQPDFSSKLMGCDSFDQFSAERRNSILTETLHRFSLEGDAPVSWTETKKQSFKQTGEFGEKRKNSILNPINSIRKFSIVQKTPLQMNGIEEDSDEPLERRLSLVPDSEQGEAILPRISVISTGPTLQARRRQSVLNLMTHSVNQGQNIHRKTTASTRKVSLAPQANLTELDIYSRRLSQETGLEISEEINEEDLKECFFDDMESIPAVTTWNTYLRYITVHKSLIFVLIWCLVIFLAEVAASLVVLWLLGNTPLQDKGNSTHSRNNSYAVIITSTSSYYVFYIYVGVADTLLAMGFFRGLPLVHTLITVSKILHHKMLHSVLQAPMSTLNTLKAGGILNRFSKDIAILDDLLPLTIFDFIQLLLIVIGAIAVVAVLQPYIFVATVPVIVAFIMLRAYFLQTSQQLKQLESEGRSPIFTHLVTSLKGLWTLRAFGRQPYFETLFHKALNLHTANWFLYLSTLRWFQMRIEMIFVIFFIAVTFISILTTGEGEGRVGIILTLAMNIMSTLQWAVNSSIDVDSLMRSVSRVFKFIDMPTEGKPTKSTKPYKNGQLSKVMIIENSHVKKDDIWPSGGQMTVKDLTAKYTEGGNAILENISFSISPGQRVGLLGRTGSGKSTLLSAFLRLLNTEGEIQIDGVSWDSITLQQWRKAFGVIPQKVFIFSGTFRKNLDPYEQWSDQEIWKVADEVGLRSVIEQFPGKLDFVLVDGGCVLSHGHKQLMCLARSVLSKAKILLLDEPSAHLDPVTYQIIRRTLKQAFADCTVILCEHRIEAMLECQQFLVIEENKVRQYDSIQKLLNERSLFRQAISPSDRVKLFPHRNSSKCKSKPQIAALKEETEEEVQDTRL
# METHOD: Cell Surface Expression-Horse Radish Peroxidase (CSE-HRP) assay
# Assay type: cell-based
# REPORTED_CONDITIONS: CFBE41o-F508delCFTR-HRP cells; maximum at any tested concentration, normalized to on-plate positive control (3 μM) and DMSO

>  <COMPOUND>
CC(C)(O)c1cccc([C@H]2C[C@@H](NC(=O)C3(c4ccc5c(c4)OC(F)(F)O5)CC3)CCO2)c1 (racemic)

>  <Maximum % activity>
58%

$$$$
>  <COMPOUND>
O=C(O)c1cccc([C@H]2C[C@@H](NC(=O)C3(c4ccc5c(c4)OC(F)(F)O5)CC3)CCO2)c1 [Example 19]

>  <Maximum % activity>
100%

$$$$
>  <COMPOUND>
COc1ccc([C@@H]2C[C@H](NC(=O)C3(c4ccc5c(c4)OC(F)(F)O5)CC3)C[C@H](c3ccc(C(=O)O)cc3)O2)cc1 (racemic) [Example 57]

>  <Maximum % activity>
90%

$$$$
>  <COMPOUND>
COC(=O)c1ccc(C)c([C@H]2C[C@@H](NC(=O)C3(c4ccc5c(c4)OC(F)(F)O5)CC3)C[C@@H](c3ccccc3)O2)c1 (racemic)

>  <Maximum % activity>
92%

$$$$
>  <COMPOUND>
O=C(O)c1ccc([C@H]2C[C@@H](NC(=O)C3(c4ccc5c(c4)OC(F)(F)O5)CC3)C[C@@H](c3ccccc3)O2)cc1 (single isomer, unassigned) [Example 53]

>  <Maximum % activity>
81%

$$$$
>  <COMPOUND>
COC(=O)c1cccc([C@H]2C[C@@H](NC(=O)C3(c4ccc5c(c4)OC(F)(F)O5)CC3)CCO2)c1 [Example 17]

>  <Maximum % activity>
81%

$$$$
>  <COMPOUND>
O=C(O)c1ccc([C@H]2C[C@@H](NC(=O)C3(c4ccc5c(c4)OC(F)(F)O5)CC3)CCO2)cc1 (racemic) [Example 14]

>  <Maximum % activity>
113%

$$$$
>  <COMPOUND>
Cc1cc(C(=O)O)ccc1[C@H]1C[C@@H](NC(=O)C2(c3ccc4c(c3)OC(F)(F)O4)CC2)CCO1 (stereo in doubt) [Example 37]

>  <Maximum % activity>
115%

$$$$
>  <COMPOUND>
O=C(N[C@H]1CCO[C@H](c2ccc(Br)cc2)C1)C1(c2ccc3c(c2)OC(F)(F)O3)CC1

>  <Maximum % activity>
59%

$$$$
>  <COMPOUND>
COC(=O)c1ccc([C@H]2C[C@@H](NC(=O)C3(c4ccc5c(c4)OC(F)(F)O5)CC3)CCO2)c(C)c1 (single isomer, unassigned) [Example 41]

>  <Maximum % activity>
104%

$$$$
>  <COMPOUND>
O=C(O)c1ccc([C@H]2C[C@@H](NC(=O)C3(c4ccc5c(c4)OC(F)(F)O5)CC3)CCO2)cc1 [Example 31]

>  <Maximum % activity>
102%

$$$$
>  <COMPOUND>
COC(=O)c1ccc([C@@H]2C[C@H](NC(=O)C3(c4ccc5c(c4)OC(F)(F)O5)CC3)CCO2)cc1

>  <Maximum % activity>
73%

$$$$
>  <COMPOUND>
Cc1cc(C(=O)O)cc([C@H]2C[C@@H](NC(=O)C3(c4ccc5c(c4)OC(F)(F)O5)CC3)C[C@@H](c3ccccc3)O2)c1 (single isomer, unassigned) [Example 75]

>  <Maximum % activity>
105%

$$$$
>  <COMPOUND>
COC(=O)c1ccc([C@H]2CC(NC(=O)C3(c4ccc5c(c4)OC(F)(F)O5)CC3)C[C@@H](C3CC3)O2)cc1 (mixture of isomers)

>  <Maximum % activity>
84%

$$$$
>  <COMPOUND>
COc1ccc([C@@H]2C[C@@H](NC(=O)C3(c4ccc5c(c4)OC(F)(F)O5)CC3)C[C@H](c3ccc(C(=O)O)cc3)O2)cc1 (racemic)

>  <Maximum % activity>
89%

$$$$
>  <COMPOUND>
O=C(N[C@@H]1CCO[C@@H](c2ccc(Br)cc2)C1)C1(c2ccc3c(c2)OC(F)(F)O3)CC1

>  <Maximum % activity>
45%

$$$$
>  <COMPOUND>
O=C(O)c1ccc([C@@H]2C[C@H](NC(=O)C3(c4ccc5c(c4)OC(F)(F)O5)CC3)C[C@H](c3ccccc3)O2)cc1 (single isomer, unassigned)

>  <Maximum % activity>
71%

$$$$
>  <COMPOUND>
COc1cccc([C@@H]2C[C@H](NC(=O)C3(c4ccc5c(c4)OC(F)(F)O5)CC3)C[C@H](c3cccc(C(=O)O)c3)O2)c1 (racemic) [Example 69]

>  <Maximum % activity>
85%

$$$$
>  <COMPOUND>
O=C(O)c1cccc([C@H]2C[C@H](NC(=O)C3(c4ccc5c(c4)OC(F)(F)O5)CC3)C[C@@H](c3ccccc3)O2)c1 (racemic)

>  <Maximum % activity>
108%

$$$$

====

Some compounds, each annotated with its measured Maximum % activity.
# TARGET_DESC: F508delCFTR (Homo sapiens, UniProt P13569, DEL508-508)
# Construct: expressed in transfected cells; host or cells: CFBE41o- (CFBE41o-F508delCFTR-HRP), doxycycline-inducible
# METHOD: Cell Surface Expression-Horse Radish Peroxidase (CSE-HRP) assay
# Format: cell-based
# REPORTED_CONDITIONS: CFBE41o-F508delCFTR-HRP cells; maximum at any tested concentration, normalized to on-plate positive control (3 μM) and DMSO
# Method: Cell Surface Expression-Horse Radish Peroxidase (CSE-HRP) Assay: A cellular assay for measuring the F508delCFTR cell surface expression after correction with test compounds was developed in human lung derived epithelial cell line (CFBE41o-) (Veit G et al, (2012) Mol Biol Cell. 23(21): 4188-4202). […] The raw counts from the experiment are analyzed using Accelrys® Assay Explorer v3.3. […]

>  <COMPOUND>
O=C(O)c1cccc([C@H]2C[C@@H](NC(=O)C3(c4ccc5c(c4)OC(F)(F)O5)CC3)C[C@@H](c3ccccc3)O2)c1 (racemic) [Example 24]

>  <Maximum % activity, %>
109

$$$$
>  <COMPOUND>
COC(=O)c1ccc([C@H]2C[C@@H](NC(=O)C3(c4ccc5c(c4)OC(F)(F)O5)CC3)CCO2)cc1 [Example 29]

>  <Maximum % activity, %>
107

$$$$
>  <COMPOUND>
Cc1ccc(C(=O)O)cc1[C@H]1C[C@@H](NC(=O)C2(c3ccc4c(c3)OC(F)(F)O4)CC2)C[C@@H](c2ccccc2)O1 (racemic)

>  <Maximum % activity, %>
92

$$$$
>  <COMPOUND>
COC(=O)c1ccc([C@H]2C[C@@H](NC(=O)C3(c4ccc5c(c4)OC(F)(F)O5)CC3)C[C@@H](C)O2)cc1 (racemic)

>  <Maximum % activity, %>
90

$$$$
>  <COMPOUND>
CCOC(=O)c1cccc([C@H]2C[C@@H](NC(=O)C3(c4ccc5c(c4)OC(F)(F)O5)CC3)C[C@@H](c3cccc(OC)c3)O2)c1 (racemic)

>  <Maximum % activity, %>
108

$$$$
>  <COMPOUND>
COC(=O)c1ccc([C@H]2C[C@@H](NC(=O)C3(c4ccc5c(c4)OC(F)(F)O5)CC3)C[C@@H](c3ccccc3)O2)c(F)c1 (racemic)

>  <Maximum % activity, %>
105

$$$$
>  <COMPOUND>
COC(=O)c1ccc([C@H]2C[C@@H](NC(=O)C3(c4ccc5c(c4)OC(F)(F)O5)CC3)C[C@@H](c3ccccc3)O2)cc1 (racemic)

>  <Maximum % activity, %>
100

$$$$
>  <COMPOUND>
C[C@@H]1C[C@H](NC(=O)C2(c3ccc4c(c3)OC(F)(F)O4)CC2)C[C@H](c2ccc(C(=O)O)cc2)O1 (single isomer, unassigned) [Example 59]

>  <Maximum % activity, %>
90

$$$$

====

# TARGET_DESC: F508delCFTR (Homo sapiens, UniProt P13569, DEL508-508)
# Construct: expressed in transfected cells; host or cells: CFBE41o- (CFBE41o-F508delCFTR-HRP), doxycycline-inducible
# METHOD: Cell Surface Expression-Horse Radish Peroxidase (CSE-HRP) assay
# Type: cell-based
# REPORTED_CONDITIONS: CFBE41o-F508delCFTR-HRP cells; maximum at any tested concentration, normalized to on-plate positive control (3 μM) and DMSO
# Maximum % activity >= 90% gives Satisfied, anything below gives Not satisfied

>  <MOLECULE>
O=C(O)c1ccc([C@H]2C[C@@H](NC(=O)C3(c4ccc5c(c4)OC(F)(F)O5)CC3)C[C@@H](c3ccccc3)O2)c(F)c1 (racemic) [Example 60]

>  <DISCRETE_LABEL>
Satisfied

$$$$
>  <MOLECULE>
COC(=O)c1ccc([C@@H]2C[C@H](NC(=O)C3(c4ccc5c(c4)OC(F)(F)O5)CC3)C[C@H](c3ccc(C(=O)OC)cc3)O2)cc1 [Example 51]

>  <DISCRETE_LABEL>
Satisfied

$$$$
>  <MOLECULE>
CCOC(=O)c1cc(C)cc([C@H]2C[C@@H](NC(=O)C3(c4ccc5c(c4)OC(F)(F)O5)CC3)C[C@@H](c3ccccc3)O2)c1 (racemic) [Example 72]

>  <DISCRETE_LABEL>
Satisfied

$$$$
>  <MOLECULE>
O=C(O)c1cccc([C@H]2C[C@H](NC(=O)C3(c4ccc5c(c4)OC(F)(F)O5)CC3)CCO2)c1 (racemic) [Example 5]

>  <DISCRETE_LABEL>
Not satisfied

$$$$
>  <MOLECULE>
O=C(O)c1cccc([C@@H]2C[C@H](NC(=O)C3(c4ccc5c(c4)OC(F)(F)O5)CC3)CCO2)c1 [Example 18]

>  <DISCRETE_LABEL>
Not satisfied

$$$$
>  <MOLECULE>
O=C(N[C@@H]1CCO[C@@H](c2cccc(CO)c2)C1)C1(c2ccc3c(c2)OC(F)(F)O3)CC1 (racemic) [Example 6]

>  <DISCRETE_LABEL>
Not satisfied

$$$$
>  <MOLECULE>
O=C(O)c1cccc([C@@H]2C[C@H](NC(=O)C3(c4ccc5c(c4)OC(F)(F)O5)CC3)C[C@H](c3ccccc3)O2)c1 [Example 26]

>  <DISCRETE_LABEL>
Not satisfied

$$$$
>  <MOLECULE>
Cc1cc(C(=O)O)ccc1[C@H]1C[C@@H](NC(=O)C2(c3ccc4c(c3)OC(F)(F)O4)CC2)CCO1 (stereo in doubt) [Example 43]

>  <DISCRETE_LABEL>
Satisfied

$$$$
>  <MOLECULE>
COC(=O)c1ccc([C@H]2C[C@@H](NC(=O)C3(c4ccc5c(c4)OC(F)(F)O5)CC3)CCO2)c(C)c1 (racemic) [Example 36]

>  <DISCRETE_LABEL>
Satisfied

$$$$
>  <MOLECULE>
COC(=O)c1ccc([C@H]2C[C@@H](NC(=O)C3(c4ccc5c(c4)OC(F)(F)O5)CC3)C[C@@H](c3ccc(OC)cc3)O2)cc1 (racemic) [Example 55]

>  <DISCRETE_LABEL>
Satisfied

$$$$
>  <MOLECULE>
O=C(N[C@H]1CCO[C@@H](c2cccc(CO)c2)C1)C1(c2ccc3c(c2)OC(F)(F)O3)CC1 (racemic) [Example 9]

>  <DISCRETE_LABEL>
Not satisfied

$$$$
>  <MOLECULE>
COC(=O)c1ccc([C@@H]2C[C@@H](NC(=O)C3(c4ccc5c(c4)OC(F)(F)O5)CC3)C[C@H](c3ccc(C(=O)OC)cc3)O2)cc1 [Example 52]

>  <DISCRETE_LABEL>
Not satisfied

$$$$
>  <MOLECULE>
O=C(N[C@@H]1CCO[C@H](c2ccc3c(c2)OCO3)C1)C1(c2ccc3c(c2)OC(F)(F)O3)CC1 [Example 15]

>  <DISCRETE_LABEL>
Not satisfied

$$$$
>  <MOLECULE>
CC(=O)c1cccc([C@H]2C[C@@H](NC(=O)C3(c4ccc5c(c4)OC(F)(F)O5)CC3)CCO2)c1 (racemic) [Example 8]

>  <DISCRETE_LABEL>
Not satisfied

$$$$
>  <MOLECULE>
O=C(O)c1ccc([C@@H]2C[C@H](NC(=O)C3(c4ccc5c(c4)OC(F)(F)O5)CC3)CCO2)cc1 [Example 30]

>  <DISCRETE_LABEL>
Not satisfied

$$$$
>  <MOLECULE>
O=C(N[C@H]1CCO[C@@H](c2ccccc2)C1)C1(c2ccc3c(c2)OC(F)(F)O3)CC1 (racemic) [Example 1]

>  <DISCRETE_LABEL>
Not satisfied

$$$$
